- target_of_assay: Human Factor B (human) (UniProt P00751)
- Sequence (P00751 26-764 limits assumed): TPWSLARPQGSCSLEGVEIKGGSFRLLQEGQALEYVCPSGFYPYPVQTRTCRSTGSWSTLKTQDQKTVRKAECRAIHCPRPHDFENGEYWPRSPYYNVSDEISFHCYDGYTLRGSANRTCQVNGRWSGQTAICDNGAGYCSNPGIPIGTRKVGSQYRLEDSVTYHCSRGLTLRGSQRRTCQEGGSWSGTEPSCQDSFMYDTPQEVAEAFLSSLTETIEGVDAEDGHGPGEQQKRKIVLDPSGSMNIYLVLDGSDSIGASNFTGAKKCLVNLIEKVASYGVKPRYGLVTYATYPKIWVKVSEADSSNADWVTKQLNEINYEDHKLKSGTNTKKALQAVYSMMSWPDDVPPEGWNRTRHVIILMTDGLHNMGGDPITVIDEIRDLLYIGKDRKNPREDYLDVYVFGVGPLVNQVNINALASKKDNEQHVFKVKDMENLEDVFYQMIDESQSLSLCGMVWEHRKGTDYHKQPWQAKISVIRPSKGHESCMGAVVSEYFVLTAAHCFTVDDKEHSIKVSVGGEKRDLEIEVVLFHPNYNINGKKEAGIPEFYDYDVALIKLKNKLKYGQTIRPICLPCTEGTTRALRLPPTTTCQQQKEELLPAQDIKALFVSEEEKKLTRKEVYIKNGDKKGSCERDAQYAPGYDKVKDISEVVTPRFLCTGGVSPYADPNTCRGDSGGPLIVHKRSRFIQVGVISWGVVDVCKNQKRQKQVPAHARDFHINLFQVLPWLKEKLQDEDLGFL
- assay_protocol: cell-based or functional assay
For each of the binders below, state its fB Cleavage EC50.
Numbers only, in nM.

| binder | fB Cleavage EC50, nM |
| --- | --- |
| chymase C22S/P38Q/K40M/F41R/L99Q/V138I/F173Y/D175N/A190S/V213A/S218V/A226R (enzyme) IIGGTESKPHSRPYMAYLEIVTSNGQSMRCGGFLIRRNFVLTAAHCAGRSITVTLGAHNITEEEDTWQKLEVIKQFRHPKYNTSTQHHDIMLLKLKEKASLTLAVGTLPFPSQFNFVPPGRMCRIAGWGRTGVLKPGSDTLQEVKLRLMDPQACSHYRNFDHNLQLCVGNPRKTKSSFKGDSGGPLLCAGVAQGIASYGRVDAKPPRVFTRISHYRPWINQILQAN | 157 |

Consider now this further binder.
Q) Requested read-out: fB Cleavage EC50. Entry: chymase C22S/K40M/F41R/L99N/F173Y/D175S/S218L/A226R (enzyme) IIGGTESKPHSRPYMAYLEIVTSNGPSMRCGGFLIRRNFVLTAAHCAGRSITVTLGAHNITEEEDTWQKLEVIKQFRHPKYNTSTNHHDIMLLKLKEKASLTLAVGTLPFPSQFNFVPPGRMCRVAGWGRTGVLKPGSDTLQEVKLRLMDPQACSHYRSFDHNLQLCVGNPRKTKSAFKGDSGGPLLCAGVAQGIVSYGRLDAKPPRVFTRISHYRPWINQILQAN
A) 230
